# MEASUREMENT NOTES: Bioavailability in mouse at 1 mg/kg, iv and 2 mg/kg, po
# Assay type: ADME, organism-based
# ASSAY CONTEXT: in vivo
MEASURE: bioavailability (%)
Write down the numeric answer in % and omit the unit.

Sample `O=C(O)CCNC(=O)c1ccc(Cn2nc(-c3cc(Cl)cc(Cl)c3)cc2-c2ccc(OC(F)(F)F)cc2)cc1` ; bioavailability observed: 15

###

# MEASUREMENT NOTES: Drug level in blood of transgenic mouse expressing human GCGR at 10 mg/kg, po after 45 mins
# Type: ADME, organism-based
# Design: dose 10 mg/kg, route oral
# ASSAY CONTEXT: read-out: Drug uptake
MEASURE: concentration at 0.75 h (µM)
Provide the reading as a plain figure in µM.

Query `O=C(O)CCNC(=O)c1ccc(Cn2nc(-c3cc(Cl)cc(Cl)c3)cc2-c2ccc(OC(F)(F)F)cc2)cc1` yields concentration at 0.75 h of 3.55
